Biological target: UniProt O96028
Sequence (O96028 whole entry): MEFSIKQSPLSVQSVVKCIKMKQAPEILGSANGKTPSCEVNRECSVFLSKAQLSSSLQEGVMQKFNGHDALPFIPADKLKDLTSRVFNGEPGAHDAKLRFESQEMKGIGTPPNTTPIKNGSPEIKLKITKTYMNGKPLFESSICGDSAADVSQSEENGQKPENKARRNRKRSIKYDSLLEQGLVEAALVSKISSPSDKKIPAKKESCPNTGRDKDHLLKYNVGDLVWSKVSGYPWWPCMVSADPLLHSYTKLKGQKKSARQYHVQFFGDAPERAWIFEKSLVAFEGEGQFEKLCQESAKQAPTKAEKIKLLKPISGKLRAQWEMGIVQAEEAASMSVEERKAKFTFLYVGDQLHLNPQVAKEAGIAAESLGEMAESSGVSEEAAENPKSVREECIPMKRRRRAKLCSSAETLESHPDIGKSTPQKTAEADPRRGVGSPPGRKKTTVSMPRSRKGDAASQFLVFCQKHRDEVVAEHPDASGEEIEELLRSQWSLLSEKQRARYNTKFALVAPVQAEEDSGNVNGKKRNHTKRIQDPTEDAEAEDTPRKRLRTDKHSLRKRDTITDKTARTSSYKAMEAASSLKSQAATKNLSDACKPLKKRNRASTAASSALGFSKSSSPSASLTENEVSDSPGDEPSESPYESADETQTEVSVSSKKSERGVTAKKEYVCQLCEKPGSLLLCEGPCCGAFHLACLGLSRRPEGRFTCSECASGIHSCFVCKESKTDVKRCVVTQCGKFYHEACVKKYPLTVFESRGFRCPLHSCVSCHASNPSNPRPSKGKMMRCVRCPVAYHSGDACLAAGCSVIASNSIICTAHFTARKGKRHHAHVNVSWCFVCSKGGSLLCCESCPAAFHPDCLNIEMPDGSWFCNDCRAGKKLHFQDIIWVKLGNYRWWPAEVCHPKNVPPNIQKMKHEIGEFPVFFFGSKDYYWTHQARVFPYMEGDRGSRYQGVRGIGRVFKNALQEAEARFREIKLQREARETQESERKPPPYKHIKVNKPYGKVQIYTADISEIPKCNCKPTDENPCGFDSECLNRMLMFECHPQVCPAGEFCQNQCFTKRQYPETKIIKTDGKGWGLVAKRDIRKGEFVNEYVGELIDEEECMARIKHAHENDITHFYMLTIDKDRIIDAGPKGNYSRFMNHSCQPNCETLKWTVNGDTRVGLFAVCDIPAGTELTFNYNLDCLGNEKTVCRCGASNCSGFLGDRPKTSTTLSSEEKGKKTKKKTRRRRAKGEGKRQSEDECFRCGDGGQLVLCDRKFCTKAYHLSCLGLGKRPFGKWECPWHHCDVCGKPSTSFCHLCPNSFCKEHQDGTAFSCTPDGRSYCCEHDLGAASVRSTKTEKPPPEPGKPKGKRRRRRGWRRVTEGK
Format: biochemical
Activity calls are given as the source filed them.
Outcome codes: Y (active), N (inactive)

INSERT INTO results (molecule, class_assignment) VALUES
  ('O=[N+]([O-])c1ccccc1NC(=S)N/N=C/c1ccc(O)c(O)c1', 'Y'),
  ('Nc1cc(S(=O)(=O)O)cc([N+](=O)[O-])c1O', 'Y'),
  ('CCC(C)NCCCCOc1ccc(Cl)cc1C (centres undefined)', 'N'),
  ('COc1cc2c(C#N)c(N3CCCC3)nc(N)c2c(N)n1', 'Y');

* * *

Recorded AC50, one value per entry.
Molecular target: Cytochrome P450 3A4 (Homo sapiens);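 note: CYP3A4 tested as one member of a cytochrome P450 panel screen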
Sequence (P08684 whole entry): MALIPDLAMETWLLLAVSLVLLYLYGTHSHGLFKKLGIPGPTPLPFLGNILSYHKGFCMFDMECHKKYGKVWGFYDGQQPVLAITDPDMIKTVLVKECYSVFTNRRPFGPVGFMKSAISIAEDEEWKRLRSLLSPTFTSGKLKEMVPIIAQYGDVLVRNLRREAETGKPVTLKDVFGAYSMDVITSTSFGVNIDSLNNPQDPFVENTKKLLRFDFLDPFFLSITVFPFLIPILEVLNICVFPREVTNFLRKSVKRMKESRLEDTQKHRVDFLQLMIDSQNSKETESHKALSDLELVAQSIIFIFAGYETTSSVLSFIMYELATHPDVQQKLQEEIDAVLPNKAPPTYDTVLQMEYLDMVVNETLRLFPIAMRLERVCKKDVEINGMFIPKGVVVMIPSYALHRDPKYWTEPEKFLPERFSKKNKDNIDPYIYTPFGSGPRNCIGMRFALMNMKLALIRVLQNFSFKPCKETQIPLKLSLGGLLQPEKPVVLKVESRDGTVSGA
measurement label: AC50

INSERT INTO results (compound, assayed_target, measurement_label, result_value) VALUES
  ('Cc1cnc(CNc2ccnc(-c3ccccc3Cl)n2)cn1', 'Cytochrome P450 3A4 (Homo sapiens)', 'AC50', '10 µM (inconclusive)'),
  ('CC(C)(C)C(=O)NC(Nc1cccc2cccnc12)C(Cl)(Cl)Cl (stereo unspecified)', 'Cytochrome P450 3A4 (Homo sapiens)', 'AC50', '7.08 µM (inconclusive)'),
  ('Cc1cccc(N(NC(=O)C(C)(C)O)C(=O)c2ccccc2)c1', 'Cytochrome P450 3A4 (Homo sapiens)', 'AC50', '17.8 µM (inconclusive)'),
  ('COc1cccc(Cn2c(=O)c(-c3cn(C)c4ccccc34)nc3cnc(N4CCNCC4)nc32)c1', 'Cytochrome P450 3A4 (Homo sapiens)', 'AC50', '15.8 µM (inconclusive)'),
  ('NCCNS(=O)(=O)c1ccc(N)cc1', 'Cytochrome P450 3A4 (Homo sapiens)', 'AC50', '5.01 µM (inconclusive)'),
  ('Oc1cc(O)cc(/C=C\c2ccc(O)c(O)c2)c1', 'Cytochrome P450 3A4 (Homo sapiens)', 'AC50', '20 µM (inconclusive)'),
  ('CN(C)c1ccc(/N=N\c2cccc3ccoc23)cc1', 'Cytochrome P450 3A4 (Homo sapiens)', 'AC50', '3.98 µM (inconclusive)'),
  ('Cc1cccc(OCCCC(=O)Nc2ccc(N3CCCCC3)cc2)c1', 'Cytochrome P450 3A4 (Homo sapiens)', 'AC50', '7.08 µM (inconclusive)'),
  ('Cc1noc(C)c1C(=O)N1CCC2(CCCN(c3ccncc3)C2)CC1', 'Cytochrome P450 3A4 (Homo sapiens)', 'AC50', '31.6 µM (inconclusive)'),
  ('CO[C@H]1COC(=O)[C@H](C)COC(=O)[C@@H](Cc2ccccc2)NC(=O)C/C=C\[C@H]1C', 'Cytochrome P450 3A4 (Homo sapiens)', 'AC50', '6.31 µM (inconclusive)'),
  ('COc1ccc(C(C)(C)C)cc1NC(=O)c1cncc(Br)c1', 'Cytochrome P450 3A4 (Homo sapiens)', 'AC50', '11.2 µM (inconclusive)');
